- Tested on: 186277-243-T-J2-PDC complex spheroid viability;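 also: spheroids exposed to drugs for 7 days; 100% = DMSO vehicle control viability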
- METHOD_SUMMARY: Anticancer human tumor 186277-243-T-J2-PDC patient-derived colon adenocarcinoma cell line growth inhibition [GQUAD]
- CONDITION_INFO: second compound 0.316 µM; first compound 0.0316 µM; hits give low values
# viability, T/C listing for each entry below

COMPOUND	viability, T/C, %
O=C(NO)c1cnc(N2CCN(S(=O)(=O)c3ccc4ccccc4c3)CC2)nc1 + Cc1[nH]c2ccc(F)cc2c1-c1nc2c3cccnc3c3ncccc3c2[nH]1	103
CC(=O)O[C@H]1C(=O)[C@@]2(C)[C@H]([C@H](OC(=O)c3ccccc3)[C@]3(O)C[C@H](OC(=O)[C@H](O)[C@@H](NC(=O)c4ccccc4)c4ccccc4)C(C)=C1C3(C)C)[C@]1(OC(C)=O)CO[C@@H]1C[C@@H]2O + Cc1[nH]c2ccc(F)cc2c1-c1nc2c3cccnc3c3ncccc3c2[nH]1	15.1
CCc1c2c(nc3ccc(O)cc13)-c1cc3c(c(=O)n1C2)COC(=O)[C@]3(O)CC + CN(C)c1ccc(Nc2c3ccc(NC(=O)CCN4CCCC4)cc3nc3cc(NC(=O)CCN4CCCC4)ccc23)cc1	23.7
CC(=O)O[C@H]1C(=O)[C@@]2(C)[C@H]([C@H](OC(=O)c3ccccc3)[C@]3(O)C[C@H](OC(=O)[C@H](O)[C@@H](NC(=O)c4ccccc4)c4ccccc4)C(C)=C1C3(C)C)[C@]1(OC(C)=O)CO[C@@H]1C[C@@H]2O + Cc1cnc(CNC(=O)c2c(=O)c3ccc(N4CCCN(C)CC4)nc3n3c2sc2ccccc23)cn1	32.6
